meta.source: ChEMBL document CHEMBL3639003

Target: cAMP and cAMP-inhibited cGMP 3',5'-cyclic phosphodiesterase 10A (Homo sapiens, UniProt Q9Y233)
Sequence (Q9Y233 whole entry): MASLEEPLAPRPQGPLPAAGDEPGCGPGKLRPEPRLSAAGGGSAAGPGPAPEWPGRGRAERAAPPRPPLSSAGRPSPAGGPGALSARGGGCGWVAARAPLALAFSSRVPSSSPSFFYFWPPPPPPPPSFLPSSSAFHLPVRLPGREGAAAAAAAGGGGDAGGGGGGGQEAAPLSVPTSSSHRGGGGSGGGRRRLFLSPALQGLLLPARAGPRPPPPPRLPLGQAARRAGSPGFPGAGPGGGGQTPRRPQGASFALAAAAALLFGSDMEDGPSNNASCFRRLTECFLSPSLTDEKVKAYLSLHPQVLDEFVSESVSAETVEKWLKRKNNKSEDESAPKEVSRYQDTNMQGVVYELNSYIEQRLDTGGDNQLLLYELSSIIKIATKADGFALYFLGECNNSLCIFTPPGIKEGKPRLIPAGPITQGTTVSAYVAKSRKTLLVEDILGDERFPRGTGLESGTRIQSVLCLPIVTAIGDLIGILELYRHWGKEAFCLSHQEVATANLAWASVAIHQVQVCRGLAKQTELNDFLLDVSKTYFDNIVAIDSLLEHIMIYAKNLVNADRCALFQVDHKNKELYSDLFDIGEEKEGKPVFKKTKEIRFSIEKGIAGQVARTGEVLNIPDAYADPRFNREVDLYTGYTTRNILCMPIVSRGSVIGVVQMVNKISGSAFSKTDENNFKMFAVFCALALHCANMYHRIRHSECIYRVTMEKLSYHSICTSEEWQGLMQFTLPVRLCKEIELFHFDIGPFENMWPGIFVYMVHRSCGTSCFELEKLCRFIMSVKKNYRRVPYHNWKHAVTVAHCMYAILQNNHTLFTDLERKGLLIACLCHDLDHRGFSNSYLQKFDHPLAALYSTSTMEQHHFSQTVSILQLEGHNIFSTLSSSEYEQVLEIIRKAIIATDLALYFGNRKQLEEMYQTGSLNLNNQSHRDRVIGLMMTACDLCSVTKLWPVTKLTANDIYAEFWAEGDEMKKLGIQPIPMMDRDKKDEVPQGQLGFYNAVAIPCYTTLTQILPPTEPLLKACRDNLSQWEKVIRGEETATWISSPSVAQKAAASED
property.name: IC50 (nM)

OCC1CCN(c2nccnc2O[C@H]2C[C@@H](Nc3nc4ccccc4s3)C2)CC1 :: 3.16

A: Fc1cnc(O[C@H]2C[C@@H](Nc3nc4cc(F)ccc4s3)C2)c(C2CCOCC2)c1
B: Fc1cccc2sc(N[C@H]3C[C@@H](Oc4nccnc4C4CCOCC4)C3)nc12
Q: Pick one: A or B . Which has the bigger IC50 number? Output the label that corresponds to your choice.
Ans: B

----------
Biological target: cAMP and cAMP-inhibited cGMP 3',5'-cyclic phosphodiesterase 10A (Homo sapiens, UniProt Q9Y233)
property.name: IC50 (nM)

Answered cases to consult:
N#Cc1ccc(-c2nccnc2O[C@H]2C[C@@H](Nc3ccc4ccccc4n3)C2)cn1 :: 8.35
COc1ncccc1-c1nccnc1O[C@H]1C[C@@H](Nc2nc3ccccc3s2)C1 :: 4.11
CC(=O)N1CCN(c2nccnc2O[C@H]2C[C@@H](Nc3ccc4ccccc4n3)C2)CC1 :: 23.7
c1cnc(O[C@H]2C[C@H](Nc3nc4ccccc4[nH]3)C2)c(C2CCOCC2)c1 :: 2.63
c1cnc(O[C@H]2CC[C@H](Nc3ccc4ccccc4n3)CC2)c(C2CCOCC2)c1 :: 91
Cc1ccnc(N[C@H]2CC[C@H](Oc3ncccc3C3CCOCC3)CC2)c1 :: 150
NC(=O)c1ccc(-c2cccnc2O[C@H]2C[C@@H](Nc3nc4ccccc4s3)C2)cn1 :: 0.129

I: N#CC1CCN(c2nccnc2O[C@H]2C[C@@H](Nc3ccc4ccccc4n3)C2)CC1
II: c1cnc(O[C@H]2CC[C@H](Nc3nc4ccccc4s3)CC2)c(C2CCOCC2)c1
Q: Smaller IC50 value, I vs II ? Output the label that corresponds to your choice.
Ans: I
(I: 2.26 nM, II: 32.5 nM)
